Source listed as patent US20230012273A1.

Molecular target: T1, Human SIRPαV1 (NP_542970.1), Extracellular Domain + His-Tag (human, UniProt P78324 31-373)
T1 construct: also called huSIRPαV1; hSIRPαV1; not shown: His-Tag
T1 sequence (P78324 other isoform, or with tags, fused parts or gaps): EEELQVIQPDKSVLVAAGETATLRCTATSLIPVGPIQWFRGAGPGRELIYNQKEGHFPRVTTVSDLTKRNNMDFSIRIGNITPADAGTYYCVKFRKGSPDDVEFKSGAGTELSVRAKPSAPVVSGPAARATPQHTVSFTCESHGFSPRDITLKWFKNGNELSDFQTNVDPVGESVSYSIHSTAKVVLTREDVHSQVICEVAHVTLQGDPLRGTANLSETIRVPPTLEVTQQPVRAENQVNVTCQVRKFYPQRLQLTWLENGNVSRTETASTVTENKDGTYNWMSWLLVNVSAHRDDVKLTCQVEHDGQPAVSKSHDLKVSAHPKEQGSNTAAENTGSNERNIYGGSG
Test: SPR, antibody captured on Protein A/G, ECD-His analyte, 1:1 fit
Procedure: The binding kinetics of anti-SIRPα antibodies to various SIRPα analytes are determined by surface plasmon resonance (SPR) using a Biacore 8K+(Cytiva). 1×HBS-EP+(Cytiva) is used as running buffer and for all the dilutions unless stated otherwise. […]
metric: kon (M⁻¹ s⁻¹)
Respond with the bare value in M⁻¹ s⁻¹.

Known results for binders:
Give the measured kon for Antibody E10 (antibody, human IgG1, kappa, L234A L235A, V domains shown) VH: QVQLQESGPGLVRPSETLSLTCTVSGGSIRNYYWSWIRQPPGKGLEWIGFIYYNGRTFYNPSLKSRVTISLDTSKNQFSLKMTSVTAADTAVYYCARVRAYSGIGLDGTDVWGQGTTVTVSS VL: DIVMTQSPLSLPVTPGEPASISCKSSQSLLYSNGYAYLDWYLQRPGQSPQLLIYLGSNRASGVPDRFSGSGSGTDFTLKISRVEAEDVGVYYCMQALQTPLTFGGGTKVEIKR
422000

Give the measured kon for Antibody E17 (antibody, human IgG1, kappa, L234A L235A, V domains shown) VH: QVQLQESGPGLVRPSETLSLTCTVSGGSIRNYYWSWIRQPPGKGLEWMGFIYDNGRTFYNPSLKSRVTISLDMSMNQFSLKMTSVTAADTAVYYCARVRAYSGIGLDGTDVWGQGTTVTVSS VL: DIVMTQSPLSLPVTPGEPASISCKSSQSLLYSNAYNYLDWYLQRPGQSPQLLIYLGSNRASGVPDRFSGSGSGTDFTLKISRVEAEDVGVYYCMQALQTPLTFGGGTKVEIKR
405000

***
Give the measured kon for Antibody E11 (antibody, human IgG1, kappa, L234A L235A, V domains shown) VH: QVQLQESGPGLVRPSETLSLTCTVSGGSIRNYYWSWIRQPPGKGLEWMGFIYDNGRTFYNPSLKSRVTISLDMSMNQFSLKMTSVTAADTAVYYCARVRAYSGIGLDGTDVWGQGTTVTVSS VL: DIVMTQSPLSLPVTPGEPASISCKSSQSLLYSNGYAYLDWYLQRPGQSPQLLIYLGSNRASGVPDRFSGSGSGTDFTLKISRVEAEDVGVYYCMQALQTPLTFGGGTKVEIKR
352000
